# System: Human betaherpesvirus 5
# measurement_description: Concentration required for 90% inhibition of HCMV replication was measured using a yield reduction assay
# Format: functional
Lab note: cut-off is 2000 nM. Strictly less in IC90 is Condition met. Exactly 2000 nM or more is Condition not met.

As a guide, the following entries are already answered.
[
  {
    "compound": "Nc1nc2c(ncn2COC(CO)CO)c(=O)[nH]1 [GANCICLOVIR]",
    "class": "Condition met"
  },
  {
    "compound": "OC[C@H]1OC(n2c(Br)nc3c(Cl)cc(Cl)cc32)[C@H](O)[C@@H]1O (some centres undefined)",
    "class": "Condition not met"
  },
  {
    "compound": "OC[C@H]1OC(n2c(Cl)nc3c(Cl)c(Cl)ccc32)[C@H](O)[C@@H]1O (some centres undefined)",
    "class": "Condition not met"
  },
  {
    "compound": "OC[C@H]1OC(n2c(Br)nc3c(Cl)c(Cl)ccc32)[C@H](O)[C@@H]1O (some centres undefined)",
    "class": "Condition met"
  },
  {
    "compound": "[N-]=[N+]=Nc1nc2c(Cl)cc(Cl)cc2n1C1O[C@H](CO)[C@@H](O)[C@H]1O (some centres undefined)",
    "class": "Condition not met"
  },
  {
    "compound": "OC[C@H]1O[C@@H](n2c(Cl)nc3cc(Cl)c(Cl)cc32)[C@H](O)[C@@H]1O",
    "class": "Condition met"
  },
  {
    "compound": "Nc1nc2c(Cl)cc(Cl)cc2n1C1O[C@H](CO)[C@@H](O)[C@H]1O (some centres undefined)",
    "class": "Condition not met"
  },
  {
    "compound": "OC[C@H]1OC(n2c(Cl)nc3c(Cl)cc(Cl)cc32)[C@H](O)[C@@H]1O (some centres undefined)",
    "class": "Condition not met"
  }
]

Next:
In: For `OC[C@H]1O[C@H](n2c(Br)nc3cc(Cl)c(Cl)cc32)[C@@H](O)[C@H]1O` , is the recorded IC90 below the cut-off of 2000 nM?
Out: Condition met

====

# Test system: Human alphaherpesvirus 1
# measurement_description: Antiviral activity was measured by plaque assay against HSV-1 virus by ELISA method
# Format: functional, organism-based
pIC50: −log10 of the molar value.
Listing of entries alongside the reported pIC50.

Would you please look over these solved cases?
[
  {
    "compound": "Clc1cc(Cl)c2[nH]c(Cl)nc2c1",
    "observed_value": "< 4.00"
  },
  {
    "compound": "OC[C@H]1OC(n2c(Cl)nc3c(Cl)cc(Cl)cc32)[C@H](O)[C@@H]1O (stereo partly specified)",
    "observed_value": "< 3.52"
  },
  {
    "compound": "CSc1nc2c(Cl)cc(Cl)cc2n1C1O[C@H](CO)[C@@H](O)[C@H]1O (stereo partly specified)",
    "observed_value": "< 3.52"
  },
  {
    "compound": "Clc1nc2c(Cl)c(Cl)ccc2[nH]1",
    "observed_value": "< 4.00"
  },
  {
    "compound": "OC[C@H]1OC(n2c(Br)nc3c(Cl)c(Cl)ccc32)[C@H](O)[C@@H]1O (stereo partly specified)",
    "observed_value": "< 4.00"
  },
  {
    "compound": "OC[C@H]1OC(n2c(Cl)nc3c(Cl)c(Cl)ccc32)[C@H](O)[C@@H]1O (stereo partly specified)",
    "observed_value": "< 4.00"
  },
  {
    "compound": "OC[C@H]1OC(n2c(S)nc3c(Cl)cc(Cl)cc32)[C@H](O)[C@@H]1O (stereo partly specified)",
    "observed_value": "< 3.52"
  },
  {
    "compound": "Nc1nc2c(Cl)cc(Cl)cc2[nH]1",
    "observed_value": "< 4.00"
  },
  {
    "compound": "Nc1nc2c(Cl)cc(Cl)cc2n1C1O[C@H](CO)[C@@H](O)[C@H]1O (stereo partly specified)",
    "observed_value": "< 3.52"
  },
  {
    "compound": "OC[C@H]1OC(n2c(SCc3ccccc3)nc3c(Cl)cc(Cl)cc32)[C@H](O)[C@@H]1O (stereo partly specified)",
    "observed_value": 3.85
  }
]

pIC50 measured on OC[C@H]1OC(n2c(Br)nc3c(Cl)cc(Cl)cc32)[C@H](O)[C@@H]1O (stereo partly specified) = < 3.52

====

Listing of entries alongside the reported IC50.
# Tested on: HFF
# measurement_description: Visual cytotoxicity was scored on HFF cells at time of HCMV plaque enumeration
# Type: functional, cell-based
# run_parameters: Homo sapiens
Kindly answer with a numeric value in µM, unit omitted.

Would you please look over these solved cases?
[
  {
    "molecule": "OC[C@H]1OC(n2c(Cl)nc3c(Cl)cc(Cl)cc32)[C@H](O)[C@@H]1O (some centres undefined)",
    "value_unit": "µM",
    "IC50": 77
  },
  {
    "molecule": "OC[C@H]1OC(n2c(SCc3ccccc3)nc3c(Cl)cc(Cl)cc32)[C@H](O)[C@@H]1O (some centres undefined)",
    "value_unit": "µM",
    "IC50": 32
  },
  {
    "molecule": "Clc1nc2c(Cl)c(Cl)ccc2[nH]1",
    "value_unit": "µM",
    "IC50": 32
  }
]

IC50 measured on `Nc1nc2c(Cl)cc(Cl)cc2[nH]1` = 100

IC50 measured on CSc1nc2c(Cl)cc(Cl)cc2n1C1O[C@H](CO)[C@@H](O)[C@H]1O (some centres undefined) = 150

IC50 measured on OC[C@H]1OC(n2c(Br)nc3c(Cl)c(Cl)ccc32)[C@H](O)[C@@H]1O (some centres undefined) = 161

IC50 measured on `Clc1cc(Cl)c2[nH]c(Cl)nc2c1` = 32

IC50 measured on OC[C@H]1OC(n2c(Br)nc3c(Cl)cc(Cl)cc32)[C@H](O)[C@@H]1O (some centres undefined) = 127

====

# Tested on: Human betaherpesvirus 5
# measurement_description: Concentration required for 50% inhibition of HCMV replication was measured using a Plaque reduction assay
# Assay type: functional, organism-based
pIC50: −log10 of the molar value.
Answer 0 (no) if pIC50 is under 5, and 1 (yes) if it is 5 or more.

As a guide, the following entries are already answered.
[
  {
    "compound": "[N-]=[N+]=Nc1nc2c(Cl)cc(Cl)cc2n1C1O[C@H](CO)[C@@H](O)[C@H]1O (some centres not stated)",
    "target_of_assay": "Human betaherpesvirus 5",
    "class": "0 (no)"
  },
  {
    "compound": "Clc1cc(Cl)c2[nH]c(Cl)nc2c1",
    "target_of_assay": "Human betaherpesvirus 5",
    "class": "1 (yes)"
  },
  {
    "compound": "OC[C@H]1OC(n2c(Cl)nc3c(Cl)c(Cl)ccc32)[C@H](O)[C@@H]1O (some centres not stated)",
    "target_of_assay": "Human betaherpesvirus 5",
    "class": "0 (no)"
  },
  {
    "compound": "OC[C@H]1OC(n2c(SCc3ccccc3)nc3c(Cl)cc(Cl)cc32)[C@H](O)[C@@H]1O (some centres not stated)",
    "target_of_assay": "Human betaherpesvirus 5",
    "class": "0 (no)"
  },
  {
    "compound": "Nc1nc2c(Cl)cc(Cl)cc2[nH]1",
    "target_of_assay": "Human betaherpesvirus 5",
    "class": "0 (no)"
  },
  {
    "compound": "CSc1nc2c(Cl)cc(Cl)cc2n1C1O[C@H](CO)[C@@H](O)[C@H]1O (some centres not stated)",
    "target_of_assay": "Human betaherpesvirus 5",
    "class": "0 (no)"
  }
]

In: Given Nc1nc2c(Cl)cc(Cl)cc2n1C1O[C@H](CO)[C@@H](O)[C@H]1O (some centres not stated) , state whether its pIC50 is at least 5.
Out: 0 (no)

In: Given OC[C@H]1OC(n2c(Br)nc3c(Cl)cc(Cl)cc32)[C@H](O)[C@@H]1O (some centres not stated) , state whether its pIC50 is at least 5.
Out: 1 (yes)

In: Given OC[C@H]1OC(n2c(S)nc3c(Cl)cc(Cl)cc32)[C@H](O)[C@@H]1O (some centres not stated) , state whether its pIC50 is at least 5.
Out: 0 (no)

In: Given OC[C@H]1OC(n2c(Br)nc3c(Cl)c(Cl)ccc32)[C@H](O)[C@@H]1O (some centres not stated) , state whether its pIC50 is at least 5.
Out: 1 (yes)

====

# System: HFF
# measurement_description: Visual cytotoxicity was scored on HFF cells at time of HCMV plaque enumeration
# Type: functional, cell-based
# run_parameters: Homo sapiens
pIC50: −log10 of the molar value.
Listing of entries alongside the reported pIC50.

pIC50 measured on Nc1nc2c(Cl)cc(Cl)cc2n1C1O[C@H](CO)[C@@H](O)[C@H]1O (stereo partly specified) = < 4.00

pIC50 measured on OC[C@H]1OC(n2c(Cl)nc3c(Cl)c(Cl)ccc32)[C@H](O)[C@@H]1O (stereo partly specified) = < 4.00

pIC50 measured on Nc1nc2c(ncn2COC(CO)CO)c(=O)[nH]1 [GANCICLOVIR] = < 4.00

pIC50 measured on O=C(O)P(=O)(O)O [FOSCARNET] = < 4.00

pIC50 measured on OC[C@H]1OC(n2c(S)nc3c(Cl)cc(Cl)cc32)[C@H](O)[C@@H]1O (stereo partly specified) = < 4.00

pIC50 measured on [N-]=[N+]=Nc1nc2c(Cl)cc(Cl)cc2n1C1O[C@H](CO)[C@@H](O)[C@H]1O (stereo partly specified) = < 4.00
